These measurements were taken from patent US20220185795A1.

# EXPERIMENTAL_DETAILS: pKa of aromatic amino group
# Format: physicochemical
# CONDITIONS: weakly basic aromatic amino group
METRIC_NAME: pKa

Memo: Cc1nc2ccc(F)cc2n1-c1nc(N)c(F)c(Nc2ccc(C(F)(F)F)cc2)n1 [Form I] , reported pKa: < 3

----------
# EXPERIMENTAL_DETAILS: Solubility in aqueous phosphate buffer and FaSSIF, pH 6.5
# Format: physicochemical
# CONDITIONS: aqueous phosphate buffer at pH 6.5
METRIC_NAME: solubility

Record summary for Cc1nc2ccc(F)cc2n1-c1nc(N)c(F)c(Nc2ccc(C(F)(F)F)cc2)n1 [Form I] : reported solubility = < 1 µg/mL
